test: chemical genetic growth profiling, strain panel (AID 1159580);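 further: tested at 20 µM; growth read once vehicle control cultures reached saturation at 30 °C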; conditions: S. cerevisiae deletion strains, growth OD, locus YJL168C, strain set2
About 2,000 (36%) of roughly 5,500 compounds were called active. Inconclusive results (about 18%) are left out. No stated cut-off is given here; in the data, active means normalized growth mostly below about 0.91 (no sharp cut-off); inconclusive means no clear call, values can overlap the other calls; inactive means mostly above about 0.92. The list shows a part of the results.
Assign a class; possible classes are true for active, false for inactive

What was the test verdict on CC1(C)C(=O)C=C[C@@]2(C)C1C[C@@H](O)[C@]1(C)C2CC[C@@]2(C)[C@H](c3ccoc3)OC(=O)[C@H]3O[C@]321 (stereo not given in full) ? false

Outcome? CC(C)(C)NCC(O)c1cc(Cl)c(N)c(Cl)c1 (stereo not given) false

Assay outcome for C[C@]12CCC3c4ccc(OS(=O)(=O)O)cc4CCC3C1CC[C@H]2O (stereo not given in full) : what was it? false

Record lookup: outcome of this test for CC1(C)C(=O)C=C[C@@]2(C)C1C=C[C@]1(C)C2CC[C@@]2(C)[C@H](c3ccoc3)OC(=O)C3OC321 (stereo not given in full) ? false

Recorded test outcome, item CC(C)c1c(O)ccc2c1CCC1C(C)(C)CCC[C@]21C (stereo not given in full) true

State the result this test recorded for CCCC(C)(COC(N)=O)COC(=O)NC(C)C (stereo not given) . false

What call does the record list for O=c1c(O)c(-c2cc(O)c(O)c(O)c2)oc2cc(O)cc(O)c12 ? false

GET /call?item= COc1ccc2c(c1C(C)C)CCC1C(C)(C)C(=O)CCC21C (stereo not given) returns the recorded outcome of this test. false

Test call, this compound: CCCCCCC(C)OC(=O)COc1ccc(Cl)cc1Cl (stereo not given) false

Please let me know the test result on file for CC(=O)Oc1ccc2c(c1C(C)C)CCC1C(C)(C)CCC[C@]21C (stereo not given in full) . false

For Cc1[nH]ccc2c1[nH]c1cc(=O)ccc12 , what call appears in the results of this test? false

Assay outcome for OCC(O)C(O)C(O)C(O)C(O)CO (stereo not given) : what was it? false

Please state the recorded outcome for this compound: CC(C)c1c(O)c(-c2cc3c(c(C(C)C)c2O)CCC2C(C)(C)CCC[C@]32C)cc2c1CCC1C(C)(C)CCC[C@]21C (stereo not given in full) false

What outcome does the record of this test show for CCOCN(C(=O)CCl)c1c(C)cccc1CC ? false

What outcome does the record of this test show for COc1cc(OC)c2c(=O)c(O)c(-c3ccc(OC)c(OC)c3)oc2c1 ? true

# lookup: test call for CCOC(=O)NC1=C(C2CC2)C(=O)C(NC(=O)OCC)=C(C2CC2)C1=O false

Please state the recorded outcome for this compound: COc1ccc(-c2cc(=O)c3c(O)cc(O[C@H]4O[C@H](CO[C@@H]5O[C@@H](C)[C@H](O)[C@@H](O)[C@H]5O)[C@@H](O)[C@H](O)[C@H]4O)cc3o2)cc1 false

Would you mind telling me which call this test gave NC(N)=NC(=O)c1nc(Cl)c(N2CCCCCC2)nc1N ? false

Field: outcome | Entry: COc1ccc(-c2oc3c(CC=C(C)C)c(O[C@@H]4O[C@H](CO)[C@@H](O)[C@H](O)[C@H]4O)cc(O)c3c(=O)c2O[C@@H]2O[C@@H](C)[C@H](O)[C@@H](O)[C@H]2O)cc1 false

Could you please tell me the result logged for COc1ccccc1/C=C\C(=O)O in this assay? false

Query: recorded result category for C[N+](C)(C)CC(O)CC(=O)O (stereo not given) in this test false

So what was the verdict on NC(=O)c1ncn([C@@H]2O[C@H](CO)[C@@H](O)[C@H]2O)n1 in this test? false

State the result this test recorded for COc1cc(O)c2c(=O)c(O)c(-c3ccc(O)c(O)c3)oc2c1 . false

Give the logged outcome of this assay for the following compound: NC(CSCSCC(N)C(=O)O)C(=O)O (stereo not given) false

Dear all, I need the recorded test outcome for COC(=O)C[C@H]1C(C)(C)C2(Cl)O[C@@]34CC2C(=O)[C@]1(C)C3CC[C@]1(C)C4=CC(=O)O[C@H]1c1ccoc1 (stereo not given in full) , thank you. false

Write down the call the test reported for this compound. Item: COc1ccc2c(c1)CCC1C2CC[C@@]2(C)C1CC[C@@H]2O (stereo not given in full) false

Which outcome was assigned to CC1(C)O[C@H]2CC(=O)OC[C@]23[C@H]2CC[C@@]4(C)[C@H](c5ccoc5)OC(=O)[C@H]5O[C@]54[C@]2(C)C(=O)C[C@@H]13 in this test? false

Fill in: this test's call for CCCCCc1c2c(cc(O)c1C(=O)O)OC(=O)c1c(cc(OC)cc1C(=O)CCCC)O2 is ___ false

Can you look up the reported call for CC1=CC(=O)C2=C(C)CC[C@@H]3[C@H](OC(=O)[C@H]3C)[C@@H]12 for me? false

What outcome does the record of this test show for CC1(C)C2CC(=O)[C@]3(C)C(CC[C@@]4(C)[C@H](c5ccoc5)OC(=O)C5OC543)[C@@]2(C)[C@@H](O)C[C@H]1O (stereo not given in full) ? false

What call does the record list for CC(CC(O)C1OC1(C)C)[C@@H]1CCC2(C)C3=CCC4C(C)(C)C(=O)CCC4(C)C3CC[C@@]12C (stereo not given in full) ? false

Per the records of this test, what outcome belongs to NC(=O)NCC(N)C(=O)O (stereo not given) ? false

What call does the record list for C[C@@H]1O[C@@H](OC[C@H]2OC(Oc3c(-c4ccc(OCCO)c(OCCO)c4)oc4cc(OCCO)cc(O)c4c3=O)[C@H](O)[C@@H](O)[C@@H]2O)[C@H](O)[C@H](O)[C@H]1O (stereo not given in full) ? false

Please share the test call associated with CC(C)c1c(O)ccc2c1CCC1[C@@](C)(C=O)CCC[C@]21C (stereo not given in full) . true

Per the assay record, what outcome was assigned to COc1cccc2c(C)cc(=O)[nH]c12 ? false

Outcome? NS(=O)(=O)c1cc(C2(O)NC(=O)c3ccccc32)ccc1Cl (stereo not given) false

For NC(=O)NCCCC(N)C(=O)O (stereo not given) , which call appears in the assay record? false

I would be grateful if you could indicate the recorded call for CCCCCCCCCCCCCCCCCC(=O)OC(CC(=O)O)C[N+](C)(C)C (stereo not given) . false

Short answer needed: outcome of this test for CC(C)(C)NCC(O)c1cc(O)cc(O)c1 (stereo not given) ? false

Test call for this compound, please: CC(=O)OC(C)C[N+](C)(C)C (stereo not given) false

====

assay: chemical genetic growth profiling, strain panel (AID 1159580);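 further: tested at 20 µM; growth read once vehicle control cultures reached saturation at 30 °C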; details: S. cerevisiae deletion strains, growth OD, locus YDL074C, strain BRE1, active compounds read low
The whole screen tested about 5,500 compounds, of which about 2,000 (36%) were called active. Another 18% or so got no clear call; they are omitted. The list shows a part of the results.
Criterion: normalized growth strictly less than 1. Met: yes. Not met: no.

Take the molecule COc1c2ccoc2cc2oc(=O)ccc12 and say whether its normalized growth is less than 1. yes

Consider the molecule CC(C)C1COc2cc3oc(=O)ccc3cc2O1 (stereo unspecified) . Is its normalized growth strictly less than 1? yes

Is normalized growth of CCOC(=O)c1c(C)cc(O)cc1O strictly below 1? yes

# strict comparison: is reported normalized growth < 1? input = CN[C@@H]1C(O)[C@@H](O[C@@H]2[C@@H](O)[C@H](O[C@H]3OC(CN)=CC[C@H]3N)[C@@H](N)C[C@H]2N)OC[C@]1(C)O (stereo partly specified) no

Please state whether normalized growth is below 1 for CCCCC1C(=O)N(c2ccccc2)N(c2ccc(O)cc2)C1=O (stereo unspecified) yes

Find out if reported normalized growth for COc1c(C(C)C)oc2cc3oc(=O)ccc3cc12 is less than 1 yes

Input O=C1C=C2C(=CCOC2O)O1 (stereo unspecified) ; condition: normalized growth strictly below 1. Does it hold? yes

Could you please tell me whether normalized growth recorded for C=C(C)[C@H]1COc2cc3oc(=O)ccc3cc2O1 is less than 1? yes

Is it true that normalized growth reported for CCOC(=O)NC1=C(C2CC2)C(=O)C(NC(=O)OCC)=C(C2CC2)C1=O is less than 1? no

Answer whether the molecule CNC(=O)Oc1cccc2c1OC(C)(C)O2 has normalized growth strictly less than 1 no

Does this molecule meet the criterion normalized growth < 1? NC(=O)NCCCC(N)C(=O)O (stereo unspecified) no

Confirm or reject: normalized growth of NC(=O)c1ncn([C@@H]2O[C@H](CO)[C@@H](O)[C@H]2O)n1 lies strictly below 1 no

API: query returns whether the molecule falls strictly under 1 in normalized growth. Query: COc1ccc2ccc(=O)oc2c1 no

Consider O=C(O)C1=C[C@@H](O)[C@@H](O)[C@H](O)C1 . Does its normalized growth lie strictly below 1? no

is_below(normalized growth, 1) for CCOC(=O)c1c(C)cc(OC)cc1O ? yes

For this molecule, is normalized growth lower than 1? NC(=O)NCC(N)C(=O)O (stereo unspecified) no

Item NS(=O)(=O)c1cc(C2(O)NC(=O)c3ccccc32)ccc1Cl (stereo unspecified) : normalized growth beneath 1, strictly? no

normalized growth under 1? Item: Cc1ccccc1OCC(O)CO (stereo unspecified) no

Below 1 on normalized growth? Entry CCCCCCC(C)OC(=O)COc1ccc(Cl)cc1Cl (stereo unspecified) yes
